Test system: Escherichia coli TOP10
Test: shrunken log2 fold change of peptide-encoding DNA abundance (4.5 h post-induction vs induction); higher = less antimicrobial activity (less host growth inhibition)
Conditions: time post-induction: 4.5 h; library: site-saturation at positions 5, 18, 19, 20
reported.metric: shrunken log2 fold change
Provide a numeric answer; units are not to be included.

Field: example entries. Status: answers known.
RRIRGRPPRLPRPRPRPVNYPRP | 0.203
RRIRPRPPRLPRPRPRPITDPRP | -0.16

### Prompt // returns reported shrunken log2 fold change for input `RRIRHRPPRLPRPRPRPEHAPRP`
### Response -0.0423

### Prompt Param item = `RRIRDRPPRLPRPRPRPLTEPRP` ; retrieve measured shrunken log2 fold change.
### Response 0.236

### Prompt Looking for the measured shrunken log2 fold change of `RRIRRRPPRLPRPRPRPNFGPRP` , can you help?
### Response 0.105

### Prompt Give its shrunken log2 fold change value. Item: `RRIRVRPPRLPRPRPRPIMPPRP`
### Response -0.535

====

Tested on: Escherichia coli TOP10
Assay: shrunken log2 fold change of peptide-encoding DNA abundance (4.5 h post-induction vs induction); higher = less antimicrobial activity (less host growth inhibition)
Details: time post-induction: 4.5 h; library: site-saturation at positions 5, 18, 19, 20
Lab note: compare shrunken log2 fold change against -0.03. Equal or greater, write True. Smaller, write False.

RRIRPRPPRLPRPRPRPDMCPRP | True

### Prompt Could you verify whether the entry `RRIRGRPPRLPRPRPRPWTMPRP` shows shrunken log2 fold change of no less than -0.03?
### Response True

====

System: Escherichia coli TOP10
Assay: shrunken log2 fold change of peptide-encoding DNA abundance (4.5 h post-induction vs induction); higher = less antimicrobial activity (less host growth inhibition)
Settings: time post-induction: 4.5 h; library: site-saturation at positions 5, 18, 19, 20
Items are presented alongside their recorded shrunken log2 fold change.
Write no unit; give the number alone.

RRIRVRPPRLPRPRPRPGLCPRP | 0.0795
RRIRIRPPRLPRPRPRPIKHPRP | -0.571

### Prompt Sample `RRIRLRPPRLPRPRPRPMDKPRP` — what was its shrunken log2 fold change?
### Response -0.296

### Prompt Look up shrunken log2 fold change: `RRIRKRPPRLPRPRPRPCEPPRP`
### Response 0.553

### Prompt Any idea what shrunken log2 fold change was measured for `RRIRTRPPRLPRPRPRPSSDPRP` ?
### Response 1.82

### Prompt What value of shrunken log2 fold change has been reported for the following sequence? `RRIRWRPPRLPRPRPRPWTIPRP`
### Response -0.0951

====

Listing: shrunken log2 fold change of selected sequences
Test system: Escherichia coli TOP10;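 further: peptides expressed intracellularly from a pBAD plasmid library in pooled LB shake-flask culture, induced with 0.3% L-arabinose, DNA abundance read by NGS, three biological replicates, DESeq2 with apeglm shrinkage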
Test: shrunken log2 fold change of peptide-encoding DNA abundance (4.5 h post-induction vs induction); higher = less antimicrobial activity (less host growth inhibition)
Conditions: time post-induction: 4.5 h; library: site-saturation at positions 5, 18, 19, 20
Reply with just the number.

These recorded examples may help you get a feel for the data.
RRIRYRPPRLPRPRPRPNKRPRP | -0.75
RRIRDRPPRLPRPRPRPCSCPRP | 0.173
RRIRMRPPRLPRPRPRPRFMPRP | 0.385

Consider now this further sequence.
### Prompt I have this sequence here, `RRIRIRPPRLPRPRPRPYDMPRP` , and I need its recorded shrunken log2 fold change.
### Response -0.19
